# Test system: SARS-CoV-2
# ASSAY DETAILS: microbe, parasite or virus in culture
# Type: cell-based
MEASURED PARAMETER: EC50 (nM)
Just the number in nM, nothing appended.

Tested on SARS-CoV-2, the item COc1cc2c(c(OC)n1)[C@]1(O)[C@H](O)[C@H](CN(C)C)[C@@H](c3ccccc3)[C@]1(c1ccc(C#N)cc1)O2 showed EC50 equal to 41.6

* * *

# Tested on: MERS-CoV
# ASSAY DETAILS: microbe, parasite or virus in culture
# Type: cell-based, Middle East respiratory syndrome coronavirus
# CONDITION SUMMARY: Middle East respiratory syndrome-related coronavirus, MRC5
MEASURED PARAMETER: EC50 (nM)
Just the number in nM, nothing appended.

Per the record, COc1cc2c(c(OC)n1)[C@]1(O)[C@H](O)[C@H](CN(C)C)[C@@H](c3ccccc3)[C@]1(c1ccc(C#N)cc1)O2 has EC50 of 4.3

* * *

# ASSAY DETAILS: in vitro
# CONDITION SUMMARY: human
MEASURED PARAMETER: CC50

Per the record, CONC(=O)[C@@H]1[C@H](O)[C@]2(O)c3c(OC)cc(OC)cc3O[C@]2(c2ccc(OC)cc2)[C@H]1c1ccccc1 has CC50 of > 100 nM

* * *

# ASSAY DETAILS: in vitro
# CONDITION SUMMARY: human
MEASURED PARAMETER: CC50

Per the record, CONC(=O)[C@@H]1[C@H](O)[C@]2(O)c3c(OC)cc(OC)cc3O[C@]2(c2ccc(OC)cc2)[C@H]1c1ccccc1 has CC50 of > 100 nM

* * *

# Test system: HCoV-229E
# ASSAY DETAILS: microbe, parasite or virus in culture
# Assay type: cell-based, human coronavirus 229E
MEASURED PARAMETER: EC50 (nM)
Just the number in nM, nothing appended.

Per the record, COc1cc2c(c(OC)n1)[C@]1(O)[C@H](O)[C@H](CN(C)C)[C@@H](c3ccccc3)[C@]1(c1ccc(C#N)cc1)O2 has EC50 of 3.86

* * *

# ASSAY DETAILS: in vitro
# CONDITION SUMMARY: human
MEASURED PARAMETER: CC50

Per the record, CONC(=O)[C@@H]1[C@H](O)[C@]2(O)c3c(OC)cc(OC)cc3O[C@]2(c2ccc(OC)cc2)[C@H]1c1ccccc1 has CC50 of > 100 nM

* * *

# ASSAY DETAILS: in vitro
# CONDITION SUMMARY: human
MEASURED PARAMETER: CC50

Per the record, CONC(=O)[C@@H]1[C@H](O)[C@]2(O)c3c(OC)cc(OC)cc3O[C@]2(c2ccc(OC)cc2)[C@H]1c1ccccc1 has CC50 of > 100 nM

* * *

# ASSAY DETAILS: in vitro
# CONDITION SUMMARY: human
MEASURED PARAMETER: CC50

Per the record, CONC(=O)[C@@H]1[C@H](O)[C@]2(O)c3c(OC)cc(OC)cc3O[C@]2(c2ccc(OC)cc2)[C@H]1c1ccccc1 has CC50 of > 100 nM
